Hello, the source for this data is patent US20240018125A1, in case you need it.

Structures can show the parent of a compound that is named as a salt.
Listed below: melting point values for each entry.

compound	melting point
Fc1ccc(CC2CN3C(CSC4=NCc5ccccc5N4)=CSC3=N2)cc1 (stereo not shown) (as salt: hydrochloride) [Example 196, dihydrochloride]	155 to 160 °C
C1=C(CSC2=N[C@@H](c3ccccc3)[C@H](c3ccccc3)N2)N2Cc3ccccc3CN=C2S1 (as salt: hydrochloride) [Example 24, dihydrochloride]	178 to 185 °C
CC1(C)CN=C(SCC2=CSC3=NCc4ccccc4CN23)N1 (as salt: hydrochloride) [Example 8, dihydrochloride]	244 to 247 °C
C1=C(CSC2=NCc3ccccc3N2)N2Cc3cccnc3N=C2S1 (as salt: hydrochloride) [Example 28, trihydrochloride]	180 to 190 °C

# input Given the entry COc1cc2nc3scc(CSC4=NCc5ccccc5N4)n3c2cc1OC.Cl [Example 97] , report its measured melting point.
# output 238 to 240 °C

# input Please give the measured melting point for this compound: c1ccc(CC2CN=C(SCCN3CCCCC3)N2)cc1 (stereo not shown) (as salt: hydrochloride) [Example 50, dihydrochloride]
# output 50 to 60 °C

# input Query (compound): Fc1cccc2c1CN1C(CSC3=NCc4ccccc4N3)=CSC1=N2 (as salt: hydrochloride) [Example 18, dihydrochloride] ; field requested: melting point
# output 193 to 203 °C

* * *

Counter-ions that a name gives are not always drawn.
This section presents compounds with their documented melting point values.

Sample records with melting point:
compound	melting point
Cl.c1ccc2c(c1)CN=C(SCc1csc3nc4ccccc4n13)N2	> 250 °C
Cl.c1ccc2c(c1)CN=C(SCCC1CCCC1)N2	42 to 50 °C
COc1ccc(C[C@@H]2CN3C(CSC4=NCc5ccccc5N4)=CSC3=N2)cc1 (as salt: hydrochloride) [Example 124, dihydrochloride]	150 to 164 °C

# input State the recorded melting point for this entry: C1=C(CSC2=NCc3ccccc3N2)N2C(=N[C@H](c3ccccc3)[C@H]2c2ccccc2)S1 (relative stereo) (as salt: hydrochloride) [Example 16, dihydrochloride]
# output 175 to 185 °C

# input Which melting point value is on record for CC1(C)c2ccccc2N=C2SC=C(CSC3=NCc4ccccc4N3)N21 (as salt: hydrochloride) [Example 95, dihydrochloride] ?
# output 180 to 185 °C

# input Data request, read-out melting point, for CC1(C)CN2C(CSC3=NCc4ccccc4N3)=CSC2=N1 (as salt: hydrochloride) [Example 3, dihydrochloride]
# output 245 to 249 °C

# input Please report the recorded melting point for c1ccc2c(c1)CN=C(SCCCCN1CCCC1)N2 (as salt: hydrochloride) [Example 137, dihydrochloride] .
# output 78 to 85 °C

# input I'd like to know its melting point. The compound in question is C1=C(CSC2=NCc3ccccc3N2)N2C(=N[C@H]3CCCC[C@@H]32)S1 (relative stereo) (as salt: hydrochloride) [Example 13, dihydrochloride]
# output 240 to 244 °C

# input melting point lookup needed for Fc1ccc2c(c1)N=C1SC=C(CSC3=NCc4ccccc4N3)N1C2 (as salt: hydrochloride) [Example 82, dihydrochloride] , thanks.
# output > 250 °C

# input May I ask what melting point has been recorded for Cc1cccc(CC2CN3C(CSC4=NCc5ccccc5N4)=CSC3=N2)c1 (stereo not shown) (as salt: hydrochloride) [Example 112, dihydrochloride] ?
# output 136 to 145 °C

# input For the compound c1ccc(CC2CN=C(SCCN3CCCCCC3)N2)cc1 (stereo not shown) (as salt: hydrochloride) [Example 58, dihydrochloride] , what melting point is on record?
# output 65 to 85 °C

# input Consider the compound shown here: COc1ccc(CC2(C)CN3C(CSC4=NCc5ccccc5N4)=CSC3=N2)cc1 (stereo not shown) (as salt: hydrochloride) [Example 46, dihydrochloride] What is its recorded melting point?
# output 156 to 168 °C

# input Return reported melting point; argument: CC1(c2ccccc2)CN=C(SCC2=CSC3=NCc4ccccc4CN23)N1 (stereo not shown) (as salt: hydrochloride) [Example 30, dihydrochloride]
# output 195 to 200 °C
